Cited source for all entries: patent US20170173008A1

MEASUREMENT_TARGET: purified EcDsbB (Escherichia coli, UniProt P0A6M2, C49V/C8A)
Construct: made in house; host or cells: E. coli
Sequence (P0A6M2 whole entry C8A/C49V): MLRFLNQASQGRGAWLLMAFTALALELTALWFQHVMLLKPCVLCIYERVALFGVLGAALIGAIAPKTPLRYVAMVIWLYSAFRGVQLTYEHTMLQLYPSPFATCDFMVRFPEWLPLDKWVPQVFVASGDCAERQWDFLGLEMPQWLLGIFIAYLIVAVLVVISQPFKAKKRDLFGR
ASSAY_OVERVIEW: In vitro assay of purified DsbB (ubiquinone reduction)
Type: biochemical, E. coli
TEST_CONDITIONS: IC50 (μM), Table 9
ENDPOINT: IC50 (µM)
Quick note: give the figure in µM, leave out the unit.

The examples below pair each entry with its known result.
[[record]]
compound = "CCOc1c(Cl)cnn(-c2ccccc2)c1=O [Compound 14]"
data_value = 6.57

[[record]]
compound = "O=c1c(Cl)c(Cl)cnn1Cc1ccccc1 [Compound 16]"
data_value = 1.86

[[record]]
compound = "O=c1c(N2CCCC2)c(Cl)cnn1-c1ccccc1 [Compound 15]"
data_value = 8.24

[[record]]
compound = "COc1c(Cl)cnn(-c2cccc(C)c2)c1=O [Compound 17]"
data_value = 5.42

[[record]]
compound = "CCCCNc1c(Cl)cnn(-c2ccccc2)c1=O [Compound 13]"
data_value = 8.12

[[record]]
compound = "O=c1c(Cl)c(Cl)cnn1-c1ccccc1 [Compound 16.2]"
data_value = 2.34


Cc1cccc(Cn2ncc(Cl)c(Cl)c2=O)c1 [Compound 16.4] has a reported IC50 of 1.27

* * *

# Lookup of reported pEC50 keyed by entry
MEASUREMENT_TARGET: DsbB (Escherichia coli, UniProt P0A6M2, C49V/C8A)
ASSAY_OVERVIEW: cell-based
// field semantics: pEC50 = negative decimal log of concentration (mol/L)

The examples below pair each entry with its known result.
[[record]]
structure_smiles = "Cc1ccccc1Cn1ncc(Cl)c(Cl)c1=O"
measurement_target = "DsbB (Escherichia coli, UniProt P0A6M2, C49V/C8A)"
endpoint = "pEC50"
data_value = 5.45

[[record]]
structure_smiles = "O=c1c(Cl)c(Cl)cnn1-c1ccccc1"
measurement_target = "DsbB (Escherichia coli, UniProt P0A6M2, C49V/C8A)"
endpoint = "pEC50"
data_value = 5.69

[[record]]
structure_smiles = "O=c1c(Br)c(Br)cnn1Cc1ccccc1"
measurement_target = "DsbB (Escherichia coli, UniProt P0A6M2, C49V/C8A)"
endpoint = "pEC50"
data_value = 4.88

[[record]]
structure_smiles = "O=c1c(Cl)c(Cl)cnn1-c1ccccc1F"
measurement_target = "DsbB (Escherichia coli, UniProt P0A6M2, C49V/C8A)"
endpoint = "pEC50"
data_value = 4.86

[[record]]
structure_smiles = "Cc1cccc(Cn2ncc(Cl)c(Cl)c2=O)c1"
measurement_target = "DsbB (Escherichia coli, UniProt P0A6M2, C49V/C8A)"
endpoint = "pEC50"
data_value = 4.86


O=c1c(Cl)c(Cl)cnn1Cc1ccncc1Cl has a reported pEC50 of 4.82

O=c1c(Cl)c(Br)cnn1Cc1ccccc1Cl has a reported pEC50 of 6.49

O=c1c(Br)c(Br)cnn1Cc1ccccc1Cl has a reported pEC50 of 7.60

O=c1c(Cl)c(Cl)cnn1Cc1ccccc1C(F)(F)F has a reported pEC50 of 5.55

O=c1c(Cl)c(Cl)cnn1Cc1ccccc1Cl has a reported pEC50 of 6.80

* * *

MEASUREMENT_TARGET: DsbB (Escherichia coli, UniProt P0A6M2, C49V/C8A)
ASSAY_OVERVIEW: cell-based
# Lookup of reported log10 EC50 keyed by entry
Annotation: log10 of EC50, µM basis.

The examples below pair each entry with its known result.
[[record]]
compound = "CCCCNc1c(Cl)cnn(-c2ccccc2)c1=O [Compound 13]"
data_value = 1.48

[[record]]
compound = "O=c1c(Cl)c(Cl)cnn1Cc1ccccc1F [Compound 16.23]"
data_value = 0.49

[[record]]
compound = "CCOc1c(Cl)cnn(-c2ccccc2)c1=O [Compound 14]"
data_value = 1.41

[[record]]
compound = "N#Cc1ccccc1Cn1ncc(Cl)c(Cl)c1=O [Compound 16.14]"
data_value = 1.12

[[record]]
compound = "O=c1c(Cl)c(Cl)cnn1Cc1ccccc1Br [Compound 16.12]"
data_value = -0.33


Please turn your attention to the following entry.
COc1c(Cl)cnn(-c2cccc(C)c2)c1=O [Compound 17] has a reported log10 EC50 of 1.86

* * *

MEASUREMENT_TARGET: DsbB (Escherichia coli, UniProt P0A6M2, C49V/C8A)
ASSAY_OVERVIEW: cell-based
ENDPOINT: pEC50
// field semantics: pEC50 = negative decimal log of concentration (mol/L)

O=c1cc(Cl)cnn1Cc1ccccc1Cl [Compound 16.25] has a reported pEC50 of 5.08

Cc1c(Cl)cnn(Cc2ccccc2Cl)c1=O [Compound 16.26] has a reported pEC50 of 4.73

* * *

# Lookup of reported EC50 RATIO (EC50 compound 16/EC50) keyed by entry
MEASUREMENT_TARGET: DsbB (Escherichia coli, UniProt P0A6M2, C49V/C8A)
Construct: expressed in transfected cells; host or cells: E. coli DHB7935 (HK295 ΔdsbB λatt::malF-lacZ102, φ80::pDSW206dsbBhis6-c-myc)
ASSAY_OVERVIEW: cell-based
Type: cell-based, E. coli
TEST_CONDITIONS: E. coli DHB7935, liquid media

[[record]]
structure_smiles = "O=c1c(Cl)c(Cl)cnn1-c1ccccc1Cl"
data_value = 3.80

[[record]]
structure_smiles = "O=c1c(Cl)c(Cl)cnn1Cc1ccccc1Cl"
data_value = 23.03

[[record]]
structure_smiles = "O=c1c(Cl)c(Cl)cnn1Cc1ccccc1F"
data_value = 1.65


N#Cc1ccccc1Cn1ncc(Cl)c(Cl)c1=O has a reported EC50 RATIO (EC50 compound 16/EC50) of 0.39

O=c1c(Cl)c(Cl)cnn1-c1ccccc1 has a reported EC50 RATIO (EC50 compound 16/EC50) of 2.49

O=c1c(Cl)c(Cl)cnn1Cc1ccccc1Br has a reported EC50 RATIO (EC50 compound 16/EC50) of 10.77

O=c1c(Cl)c(Cl)cnn1Cc1ccccc1 has a reported EC50 RATIO (EC50 compound 16/EC50) of 1.00

Cc1cccc(Cn2ncc(Cl)c(Cl)c2=O)c1 has a reported EC50 RATIO (EC50 compound 16/EC50) of 0.37

Cc1ccccc1Cn1ncc(Cl)c(Cl)c1=O has a reported EC50 RATIO (EC50 compound 16/EC50) of 1.43

O=c1c(Cl)c(Cl)cnn1-c1ccccc1F has a reported EC50 RATIO (EC50 compound 16/EC50) of 0.73

* * *

MEASUREMENT_TARGET: DsbB (Escherichia coli, UniProt P0A6M2, C49V/C8A)
Construct: expressed in transfected cells; host or cells: E. coli DHB7935 (HK295 ΔdsbB λatt::malF-lacZ102, φ80::pDSW206dsbBhis6-c-myc)
ASSAY_OVERVIEW: cell-based
Assay type: cell-based, E. coli
# Lookup of reported EC50 keyed by entry
Quick note: give the figure in µM, leave out the unit.

The examples below pair each entry with its known result.
[[record]]
compound = "O=c1c(Cl)c(Cl)cnn1-c1ccccc1Cl [Compound 16.20]"
endpoint = "EC50"
data_value = 1.34

[[record]]
compound = "O=c1c(Cl)c(Cl)cnn1Cc1sccc1Cl [Compound 16.42]"
endpoint = "EC50"
data_value = 1.45

[[record]]
compound = "O=c1c(Cl)c(Cl)cnn1Cc1ccccc1 [Compound 16]"
endpoint = "EC50"
data_value = 5.1


O=c1c(Cl)c(Cl)cnn1Cc1ccc([N+](=O)[O-])cc1 [Compound 16.8] has a reported EC50 of 38.7

O=c1c(Cl)c(Cl)cnn1Cc1c(Cl)cccc1Cl [Compound 16.37] has a reported EC50 of 6570

O=c1c(Cl)c(Cl)cnn1Cc1cccs1 [Compound 16.41] has a reported EC50 of 33.1

O=c1c(Cl)c(Cl)cnn1Cc1ccccc1OC(F)(F)F [Compound 16.36] has a reported EC50 of 7.12

N#Cc1cccc(Cn2ncc(Cl)c(Cl)c2=O)c1 [Compound 16.9] has a reported EC50 of 509

O=c1c(N2CCCC2)c(Cl)cnn1-c1ccccc1 [Compound 15] has a reported EC50 of 28.1

O=c1c(Cl)c(Cl)cnn1Cc1ncccc1Cl [Compound 16.40] has a reported EC50 of 10.8

* * *

# Lookup of reported EC50 keyed by entry
MEASUREMENT_TARGET: DsbB (Escherichia coli, UniProt P0A6M2, C49V/C8A)
ASSAY_OVERVIEW: cell-based
Quick note: give the figure in µM, leave out the unit.

The examples below pair each entry with its known result.
[[record]]
compound = "COc1cccc(Cn2ncc(Cl)c(Cl)c2=O)c1 [Compound 16.11]"
measurement_target = "DsbB (Escherichia coli, UniProt P0A6M2, C49V/C8A)"
endpoint = "EC50"
data_value = 232

[[record]]
compound = "O=c1c(Cl)c(Cl)cnn1Cc1c(F)cccc1Cl [Compound 16.22]"
measurement_target = "DsbB (Escherichia coli, UniProt P0A6M2, C49V/C8A)"
endpoint = "EC50"
data_value = 18.1


Please turn your attention to the following entry.
O=c1c(Br)c(Cl)cnn1Cc1ccccc1Cl [Compound 16.43] has a reported EC50 of 0.29
